Target: SARS-CoV Spike protein (SARS-CoV, UniProt P59594 14-1190)
PROPERTY_NAME: bead binding signal (median fluorescence, fold over isotype control)
Write the answer as a number in fold over isotype control, unit excluded.

Lab note: measured bead binding signal (median fluorescence, fold over isotype control) of antibody 379 (antibody, V domains shown) VH: QVQLQESGPGLVKPSQTLSLTCTVSGGSISSGGYYWSWIRQHPGKGLEWIGYIYYSGSTYYNPSLKSRVTISVDTSKNQFSLKLSSVTAADTAVYYCARGPLDFWSGYFRLRYFDSWGQGTLVTVSS VL: QSALTQPASVSGSPGQSITISCTGTSSDVGGYNYVSWYQQHPGKAPKLMIYDVTNRPSGVSNRFSGSKSGNTASLTISGLQAEDEADYYCSSYTSSSTCVFGTGTKVTVL was 5.9

Lab note: measured bead binding signal (median fluorescence, fold over isotype control) of antibody 366 (antibody, V domains shown) VH: QVQLVESGGGVVQPGRSLRLSCAASGFTFSSYAMHWVRQAPGKGLEWVAVISYDGSNKYYADSVKGRFTISRDNSKNTLYLQMNSLRAEDTAVYYCARGLVGYNWFDPWGQGTLVTVSS VL: DIQMTQSPSSVSASVGDRVTITCRASQGISSWLAWYQQKPGKAPKLLIYAASSLQSGVPSRFSGSGSGTDFTLTISSLQPEDFATYYCQQANSFTFGPGTKVDIK was 1.23

Lab note: measured bead binding signal (median fluorescence, fold over isotype control) of antibody 343 (antibody, V domains shown) VH: QVQLVESGGDVVQPGTSLRLSCAASGFTFNNYGFHWVRQAPGKGLEWVALISSDGASTHYADSVKGRFTISRDSSVNTLYLQMNSLSLEDTAVYYCATGHCGTTCYYFDYWGQGTLVSVSS VL: DIQVTQSPSYLSASVGDRVTITCRASQTISTFLQWYQQKVGKAPKLLIYAASTLQSGVPSRFSGSGSGTDFSLTISSLQPEDFATYYCQQSYSAPLSFGGGTKVEIK was 1.19

Lab note: measured bead binding signal (median fluorescence, fold over isotype control) of antibody 367 (antibody, V domains shown) VH: QVQLVQSGAEVKKPGASVKVSCKASGYTFTGYYIHWVRQAPGQGLEWMGWINPNSGGTIYAQKFQGRVTMTRDTSISTAYMELSRLTSDDTAVYSCAREPYYDILTGYYAPRRYFDYWGQGTLVTVSS VL: QSALTQPASVSGSPGQSITISCTGTSSDVGSYNYVSWYLQHPGKAPKLMIYDVSNRPSGVSNRFSGSKSGNTASLTISGLQAEDEADFYCSSYTSRSTYVFGTGTKVTVL was 1.08

Lab note: measured bead binding signal (median fluorescence, fold over isotype control) of antibody 337 (antibody, V domains shown) VH: QVQLVESGGGVVQPGRSLRLSCAASGFTFSSYGMHWVRQAPGKGLEWVAIIWYDGSNKYYADSVKGRFTISRDNSKNTLYLQMNSLRAEDTAVYYCAKDTGGYCSGGSCYPESYFDYWGQGTLVTVSS VL: SYVLTQPPSVSVAPGKTARITCGGNNIGSKSVHWYQQKPGQAPVLVIYYDSDRPSGIPERFSGSNSGNTATLTINRVEAGDEADYYCQVWDGSSDHLYVFGTGTKVTVL was 439

Lab note: measured bead binding signal (median fluorescence, fold over isotype control) of antibody 339 (antibody, V domains shown) V domain 1: QITLKESGPTLVKPTETLTLTCSFSGFSLTRTGEAAGWIRQAPGRALEWVTVIFWDDDKRYSPSLQSRLTVTKDTSKNQVVLTMTNVARFDTATYFCWAMGGPGKEYFGQGTQVAVSS V domain 2: QSVLTQPPSVSGAPGQRVTISCTGTSSSIGPYSDVHWYQHVSGKAPRLLIFGNSNRPSGVPDRFSGSKSGTSASLVIAGLQAEDEADYYCQSYDSSLGEIYVFGTGTTVTVL was 1.27

Lab note: measured bead binding signal (median fluorescence, fold over isotype control) of antibody 351 (antibody, V domains shown) VH: HVQLVESGGGVVQPGRSLRLSCAASGFISRNYGMEWVRQAPGQGLEWVAGIWYDGSKKYYADSVKGRFTISRDTSKNTLFLQMDSLRAEDTAVFYCATATKTFCGGDCPPGGMDVWGQGTTVTVST VL: SYVLTQPPSVSVAPGKTAWITCVGNNIESESVHWYQQRPGQAPVLVIYYDSDRPSGIPERFFGSNSGNTATLTISRVEAGDEADYYCQVWDSNSDLMVFGGGTKLTVL was 1.08

Lab note: measured bead binding signal (median fluorescence, fold over isotype control) of antibody 340 (antibody, V domains shown) VH: QVQLVQSGAEVKKPGASVKVSCKASGYTFTSYDINWVRQATGQGLEWMGWMNPNSGNTGYAQKFQGRVTMTRNTSISTAYMELSSLRSEDTAVYYCARGRYCTGGVCWGDWYFDLWGRGTLVTVSS VL: QSVLTQPPSVSGAPGQRVTISCTGSSSNIGAGYDVHWYQQLPGTAPKFLIYGNSNRPSGVPDRFSGSKSGTSASLAITGLQAEDEADYYCQSYDSSLSGPVFGGGTKLTVL was 1.26

Lab note: measured bead binding signal (median fluorescence, fold over isotype control) of antibody 345 (antibody, V domains shown) VH: QVQLQESGPGLVKPSQTLSLTCTVSGGSISSGDYYWSWIRQPPGKGLEWIGYIYYSGSTYYNPSLKSRVTISVDTSKNQFSLKLSSVTAADTAVYYCARVGMVDNWNFEGNWFDPWGQGTLVTVSS VL: QSALTQPRSVSGSPGQSVTISCTGTSSDVGGYNYVSWYQQHPGKAPKLMIYDVSKRPSGVPDRFSGSKSGNTASLTISGLQAEDEADYYCCSYAGSVVFGGGTKLTVL was 1.09
